# Assay Details: calcium flux activation in mu-opioid HEK293 cells, confirmation, counter-screen for TRPC4 activator project, cell-based, HEK293 mu-opioid receptor line (AID 449723);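 note: counter screen cells carry the mu-opioid receptor alone and lack TRPC4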; for activation: reference of the scale not given here
# Settings: Fluo-4 calcium fluorescence, at 10 µM
Active and inactive are the calls of the source.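 Rule for the calls: active = hit in primary screen, with calcium signal over 5 SD above buffer well mean in both duplicates; inactive = the rest.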
The reply should name one outcome from T = active, F = inactive

Examples from the recorded data:
> print(dat)
                                   compound  label
1   Cn1c(CN2CCN(c3cccc(Cl)c3)CC2)nc2ccccc21      F
2  CCOC(=O)C1(CCCc2ccccc2)CCN(Cc2cn(CC)nc2C)CC1      F
3                Clc1ccc(OCCNCCc2ccccc2)cc1      F
4  CCOC(=O)C1(CCOc2ccccc2)CCN(Cc2ccc(OC)c(O)c2)CC1      F
5  CCCN(CCC)CCNC(=S)Nc1ccc2nc3n(c(=O)c2c1)CCCCC3      F
6               CCN(CC)CCCOc1ccc(Cl)c(Cl)c1      F
7  CCOC(=O)C1(CC2CC2)CCN(Cc2ccc(O)c(Cl)c2)CC1      F
8  COc1cc(/C=C/C(=O)c2ccc3c(c2)OCO3)cc(Cl)c1O      T

## Input Could you kindly confirm the outcome this assay logged for Cc1csc2c(N3CCN(C(=O)NC(C)(C)C)CC3)ncnc12 ?
## Output F

## Input Could you kindly confirm the outcome this assay logged for CCn1cc(CN2CCC(n3nccc3NC(=O)CCCc3ccccc3)CC2)cn1 ?
## Output F

## Input Could you kindly confirm the outcome this assay logged for COc1cc(OC)cc(C(=O)NCCCN2CCN(CCCNC(=O)c3cc(OC)cc(OC)c3)CC2)c1 ?
## Output F

## Input Could you kindly confirm the outcome this assay logged for CCOC(=O)c1oc2ccc(OC)cc2c1NC(=O)CN1CCN(C)CC1 ?
## Output F

## Input Could you kindly confirm the outcome this assay logged for CNCCCOc1ccc2c(c1)CCC2 ?
## Output F

## Input Could you kindly confirm the outcome this assay logged for Cc1cccc(NC(=S)NCC(c2cccnc2)N(C)C)c1C (configuration not stated) ?
## Output F

## Input Could you kindly confirm the outcome this assay logged for Cc1sc2ncnc(NCC(C)(C)N3CCOCC3)c2c1C ?
## Output F

## Input Could you kindly confirm the outcome this assay logged for C/C=C(\C)CN1CCC(n2nccc2NC(=O)CCc2ccccc2)CC1 ?
## Output F

## Input Could you kindly confirm the outcome this assay logged for Cc1nc(NCC(c2ccccc2)N(C)C)c2c(C)c(C)sc2n1 (configuration not stated) ?
## Output F

## Input Could you kindly confirm the outcome this assay logged for Cc1cc(C)c(CN2CCN(Cc3ccc(C)o3)C(CCO)C2)c(-n2cccn2)c1 (configuration not stated) ?
## Output F

## Input Could you kindly confirm the outcome this assay logged for CCOC(=O)c1c(NC(=O)COC(=O)Cc2c[nH]c3ccccc23)sc(C(=O)N(C)C)c1C ?
## Output F

## Input Could you kindly confirm the outcome this assay logged for CN(C)CCCN(C(=O)c1ccc(S(=O)(=O)N(C)C2CCCCC2)cc1)c1nc2ccc(F)cc2s1 ?
## Output F

## Input Could you kindly confirm the outcome this assay logged for O=S(=O)(c1ccccc1)c1nnn2c1nc(NC1CCN(Cc3ccccc3)CC1)c1cc(Cl)ccc12 ?
## Output F

## Input Could you kindly confirm the outcome this assay logged for COc1ccc(C(CNC(=O)c2cccc3cccnc23)N(C)C)cc1 (configuration not stated) ?
## Output F
